Tested on: prickly sida
test name: Test Example 1: foliage treatment, upland pot test
Format: in vivo, Sida spinosa L.
measurement setup: active ingredient 1000 g/ha, observed 18th to 23rd day, 0 = non-treated, 100 = complete kill
reported endpoint: Growth controlling degree (%) Prickly sida
State just the number; it will be interpreted in %.

Completed entries (count: 6):
| compound | assay result |
| --- | --- |
| COC(=O)N(C)C(c1cnccc1C(F)(F)F)c1cccc2ccccc12 (centres unmarked) | 80 |
| CC(C)C(c1cnccc1C(F)(F)F)N(C)C(=O)Cc1ccccc1Br (centres unmarked) | 80 |
| CCN(C(=O)Cc1cccc(C(F)(F)F)c1F)C(c1cnccc1C(F)(F)F)C(C)C (centres unmarked) | 70 |
| CC(C)COC(=O)N(C)C(c1cnccc1C(F)(F)F)c1cccc2ccccc12 (centres unmarked) | 70 |
| CC(C)C(c1cnccc1Cl)N(C)C(=O)Cc1ccc(F)c(F)c1 (centres unmarked) | 85 |
| CCC(=O)N(CC)C(c1cnccc1C(F)(F)F)c1cccc2ccccc12 (centres unmarked) | 80 |

Q: Indicate its recorded Growth controlling degree (%) Prickly sida; the compound in question is CC(C)C(c1cnccc1C(F)(F)F)N(C)C(=O)Cc1ccccc1 (centres unmarked)
A: 80

Q: Please give measured Growth controlling degree (%) Prickly sida of the following entry: CC(C)C(c1cnccc1Cl)N(C)C(=O)Cc1cccc(C(F)(F)F)c1F (centres unmarked)
A: 80

---

Test system: velvetleaf
test name: Test Example 1: foliage treatment, upland pot test
Type: in vivo, Abutilon theophrasti MEDIC.
measurement setup: active ingredient 500 g/ha, observed 18th to 23rd day, 0 = non-treated, 100 = complete kill
reported endpoint: Growth controlling degree (%) Velvetleaf
Give the quantity in %, number only.

Examples from the recorded data:
| compound | assay result |
| --- | --- |
| CC(C)C(c1cnccc1C(F)(F)F)N(C)S(=O)(=O)c1ccc(Cl)cc1 (racemic) | 70 |
| CCCC(=O)N(C)C(c1cnccc1C(F)(F)F)C(C)C (centres unmarked) | 70 |
| CC(C)C(c1cnccc1Cl)N(C)C(=O)Cc1ccccc1F (centres unmarked) | 70 |
| Cc1ccc(OC(C)C(=O)N(C)C(c2cnccc2C(F)(F)F)C(C)C)cc1 (mixture of isomers) | 50 |

Q: Please supply the value of reported Growth controlling degree (%) Velvetleaf for the item Cc1ccccc1CC(=O)N(C)C(c1cnccc1C(F)(F)F)C(C)C (centres unmarked)
A: 70

---

A collection of compounds and their measured Growth controlling degree (%) Japanese bulrush
Test system: japanese bulrush
test name: Test Example 3: paddy pot test, application under submerged conditions
Format: in vivo, Scirpus juncoides
measurement setup: active ingredient 250 g/ha; submerged application at 0.5 leaf stage; visually observed 14 days after application; 0 = non-treated, 100 = complete kill
Give the number; % is assumed, so skip it.

Recorded results for 4 compounds are shown here.
| compound | tgt | assay result |
| --- | --- | --- |
| CC(C)C(c1cnccc1C(F)(F)F)N(C)C(=O)Cc1cccc(C(F)(F)F)c1 (stereo not drawn) | japanese bulrush | 50 |
| CCC(CC)C(c1cnccc1C(F)(F)F)N(C)C(=O)Cc1ccccc1 (stereo not drawn) | japanese bulrush | 95 |
| CC(C)C(c1cnccc1C(F)(F)F)N(C)C(=O)Cc1ccc(I)cc1 (stereo not drawn) | japanese bulrush | 90 |
| CC(C)C(c1cnccc1C(F)(F)F)N(C)C(=O)Cc1cc(C(F)(F)F)ccc1F (stereo not drawn) | japanese bulrush | 100 |

Q: Look up Growth controlling degree (%) Japanese bulrush of CC(C)C(c1cnccc1C(F)(F)F)N(C)C(=O)Cc1cccs1 (stereo not drawn) and report it.
A: 98

---

Tested on: redroot pigweed
test name: Test Example 2: soil surface treatment, upland pot test
Type: in vivo, Amaranthus retroflexus L.
measurement setup: active ingredient 500 g/ha, observed day 21, 0 = non-treated, 100 = complete kill
reported endpoint: Growth controlling degree (%) Redroot pigweed
Write the answer as a number in %, unit excluded.

# count of solved cases: 4
| compound | units symbol | assay result |
| --- | --- | --- |
| CCC(C)C(c1cnccc1C(F)(F)F)N(C)C(=O)COc1ccccc1 (stereo not drawn) [I-261] | % | 70 |
| CC(C)C(c1cnccc1C(F)(F)F)N(C)C(=O)CSc1ccccc1 (stereo not drawn) [I-256] | % | 80 |
| CCc1ccc(OCC(=O)N(C)C(c2cnccc2C(F)(F)F)C(C)C)cc1 (stereo not drawn) [I-249] | % | 60 |
| CCN(C(=O)COc1ccccc1)C(c1cnccc1C(F)(F)F)C(C)C (stereo not drawn) [I-259] | % | 50 |

Proceed to the following item.
Q: Give reported Growth controlling degree (%) Redroot pigweed value for CC(C)C(c1cnccc1C(F)(F)F)N(C)C(=O)COc1ccc(Br)cc1 (stereo not drawn) [I-255]
A: 70

---

System: japanese bulrush
test name: Test Example 3: paddy pot test, application under submerged conditions
Type: in vivo, Scirpus juncoides
measurement setup: active ingredient 125 g/ha; submerged application at 0.5 leaf stage; visually observed 14 days after application; 0 = non-treated, 100 = complete kill
reported endpoint: Growth controlling degree (%) Japanese bulrush
Your answer is read as %, so omit the unit and give the number.

Answered cases to consult:
| compound | units symbol | assay result |
| --- | --- | --- |
| Cc1ccc(CC(=O)N(C)C(c2cnccc2C(F)(F)F)C(C)C)c(F)c1 (racemic) | % | 90 |
| CC(C)C(c1cnccc1Cl)N(C)C(=O)Cc1ccc(F)c(F)c1 (centres unmarked) | % | 90 |
| CC(C)C(c1cnccc1Cl)N(C)C(=O)Cc1c(F)cccc1F (centres unmarked) | % | 70 |
| CC(C)C(c1cnccc1Cl)N(C)C(=O)Cc1cccc(F)c1 (centres unmarked) | % | 90 |
| CC(C)C(c1cnccc1Cl)N(C)C(=O)Cc1cccc(F)c1F (centres unmarked) | % | 70 |

Q: Quickly give me recorded Growth controlling degree (%) Japanese bulrush for CC(C)C(c1cnccc1Cl)N(C)C(=O)Cc1cccc(C(F)(F)F)c1 (centres unmarked)
A: 70

Q: Return the recorded Growth controlling degree (%) Japanese bulrush value; entry: CC(C)C(c1cnccc1Cl)N(C)C(=O)Cc1ccccc1F (centres unmarked)
A: 90

Q: Respond only with Growth controlling degree (%) Japanese bulrush recorded for Cc1ccc(S(=O)(=O)N(C)C(c2cnccc2C(F)(F)F)C(C)C)cc1 (racemic)
A: 70

Q: Tell me Growth controlling degree (%) Japanese bulrush reported for CC(C)C(c1cnccc1Cl)N(C)C(=O)Cc1ccc(F)cc1F (centres unmarked)
A: 90

Q: Item CC(C)C(c1cnccc1Cl)N(C)C(=O)Cc1ccc(C(F)(F)F)cc1 (centres unmarked) : provide Growth controlling degree (%) Japanese bulrush
A: 70

Q: Look up and state reported Growth controlling degree (%) Japanese bulrush for CC(C)C(c1cnccc1Cl)N(C)C(=O)Cc1ccc(F)cc1 (centres unmarked)
A: 98

---

Tested on: corn
test name: Test Example 2: soil surface treatment, upland pot test
Format: in vivo, Zea mays L.
measurement setup: active ingredient 500 g/ha, observed 20th to 28th day
reported endpoint: Growth controlling degree (%) Corn
Express the result in % but write the number alone.

Use the examples below as a reference point.
| compound | Growth controlling degree (%) Corn |
| --- | --- |
| COc1ccc(OCC(=O)N(C)C(c2cnccc2C(F)(F)F)C(C)C)cc1 (stereo not shown) | 30 |
| CC(Oc1ccc(Br)cc1)C(=O)N(C)C(c1cnccc1C(F)(F)F)C(C)C (mixture of isomers) | 0 |
| CC(C)C(c1cnccc1C(F)(F)F)N(C)C(=O)Cc1cccc(F)c1 (stereo not shown) | 70 |
| CC(C)C(c1cnccc1C(F)(F)F)N(C)C(=O)COc1cccc(F)c1 (stereo not shown) | 40 |

Now look at this entry.
Q: Please indicate Growth controlling degree (%) Corn recorded for CC(C)C(c1cnccc1Cl)N(C)C(=O)Cc1ccc(C(F)(F)F)cc1 (stereo not shown)
A: 20

---

System: barnyardgrass
test name: Test Example 1: foliage treatment, upland pot test
Type: in vivo, Echinochloa crus-galli L.
measurement setup: active ingredient 1000 g/ha, observed 18th to 23rd day, 0 = non-treated, 100 = complete kill
Growth controlling degree (%) Barnyardgrass vs 80%: at or above is condition met, below is condition not met.

| compound | label |
| --- | --- |
| CC(C)C(c1cnccc1C(F)(F)F)N(C)C(=O)Cc1ccc(Br)cc1 (centres unmarked) | condition met |

Alright, here's another compound for you.
Q: Dear colleague, could you confirm whether CC(C)COC(=O)N(C)C(c1cnccc1C(F)(F)F)c1cccc2ccccc12 (centres unmarked) has Growth controlling degree (%) Barnyardgrass at or above 80%?
A: condition not met

---

System: rice
test name: Test Example 2: soil surface treatment, upland pot test
Assay type: in vivo, Oryza sativa L.
measurement setup: active ingredient 250 g/ha, observed 20th to 28th day
Given measured Growth controlling degree (%) Rice, output met if it is greater than or equal to 40% and not met if not.

Solved entries:
| compound | label |
| --- | --- |
| CC(C)CC(=O)N(C)C(c1cnccc1C(F)(F)F)C(C)C (stereo not drawn) [I-193] | met |
| CC(C)C(c1cnccc1C(F)(F)F)N(C)C(=O)C(Br)C(C)(C)C (stereo not drawn) [I-196] | not met |
| CCCOC(=O)N(C)C(c1cnccc1C(F)(F)F)C(C)C (stereo not drawn) [I-203] | met |

Q: Would you say CC(=O)N(C)C(c1cnccc1C(F)(F)F)C(C)C (stereo not drawn) [I-208] shows Growth controlling degree (%) Rice at minimum 40%?
A: met

Q: Record CC(C)C(c1cnccc1C(F)(F)F)N(C)S(=O)(=O)c1ccc(Br)cc1 (racemic) [I-136] ; criterion: Growth controlling degree (%) Rice no lower than 40%. Met?
A: met

Q: Tell me whether Growth controlling degree (%) Rice is at least 40% here: CC(C)=CC(=O)N(C)C(c1cnccc1C(F)(F)F)C(C)C (stereo not drawn) [Compound I-205]
A: met

Q: Dear colleague, could you confirm whether CCCCC(=O)N(C)C(c1cnccc1C(F)(F)F)C(C)C (stereo not drawn) [I-199] has Growth controlling degree (%) Rice at or above 40%?
A: met
